assay: Stability test: storage in nitrogen-filled sealed bottles, purity test by HPLC every month; type: physicochemical; conditions: Table 2, stored at 2° C. to 8° C., 4 months

{"molecule": "NC(=O)c1ccc[n+]([C@@H]2O[C@H](CO)[C@@H](O)[C@H]2O)c1.O=C(O)CC(O)(CC(=O)O)C(=O)[O-] [Example 1, citrate of NR (1:1)]", "purity by HPLC, Time (month) 4": 97.957}
{"molecule": "NC(=O)c1ccc[n+]([C@@H]2O[C@H](CO)[C@@H](O)[C@H]2O)c1.O=C([O-])C[C@H](O)C(=O)O [Example 3, malate of NR (1:1)]", "purity by HPLC, Time (month) 4": 97.946}
{"molecule": "NC(=O)c1ccc[n+]([C@@H]2O[C@H](CO)[C@@H](O)[C@H]2O)c1.[Cl-] [Comparative Example, chlorine salt of NR, reference compound]", "purity by HPLC, Time (month) 4": 97.612}
{"molecule": "NC(=O)c1ccc[n+]([C@@H]2O[C@H](CO)[C@@H](O)[C@H]2O)c1.O=C(O)C[C@H](O)C(=O)O.O=C([O-])C[C@H](O)C(=O)O [Example 4, malate of NR (1:2)]", "purity by HPLC, Time (month) 4": 98.239}
{"molecule": "NC(=O)c1ccc[n+]([C@@H]2O[C@H](CO)[C@@H](O)[C@H]2O)c1.O=C(O)CC(O)(CC(=O)O)C(=O)O.O=C(O)CC(O)(CC(=O)O)C(=O)[O-] [Example 2, citrate of NR (1:2)]", "purity by HPLC, Time (month) 4": 97.626}

====

experiment: Stability test: storage in nitrogen-filled sealed bottles, purity test by HPLC every month; assay type: physicochemical; settings: Table 2, stored at 2° C. to 8° C., 6 months
propertyLabel: purity by HPLC, Time (month) 6

{"compound": "NC(=O)c1ccc[n+]([C@@H]2O[C@H](CO)[C@@H](O)[C@H]2O)c1.O=C(O)CC(O)(CC(=O)O)C(=O)[O-] [Example 1, citrate of NR (1:1)]", "observedValue": 97.670}
{"compound": "NC(=O)c1ccc[n+]([C@@H]2O[C@H](CO)[C@@H](O)[C@H]2O)c1.O=C([O-])C[C@H](O)C(=O)O [Example 3, malate of NR (1:1)]", "observedValue": 97.337}
{"compound": "NC(=O)c1ccc[n+]([C@@H]2O[C@H](CO)[C@@H](O)[C@H]2O)c1.[Cl-] [Comparative Example, chlorine salt of NR, reference compound]", "observedValue": 97.109}
{"compound": "NC(=O)c1ccc[n+]([C@@H]2O[C@H](CO)[C@@H](O)[C@H]2O)c1.O=C(O)CC(O)(CC(=O)O)C(=O)O.O=C(O)CC(O)(CC(=O)O)C(=O)[O-] [Example 2, citrate of NR (1:2)]", "observedValue": 97.498}
{"compound": "NC(=O)c1ccc[n+]([C@@H]2O[C@H](CO)[C@@H](O)[C@H]2O)c1.O=C(O)C[C@H](O)C(=O)O.O=C([O-])C[C@H](O)C(=O)O [Example 4, malate of NR (1:2)]", "observedValue": 97.816}

====

Recorded purity by HPLC, Time (month) 5 values for a group of compounds are listed next.
test: Stability test: storage in nitrogen-filled sealed bottles, purity test by HPLC every month; type: physicochemical; conditions: Table 2, stored at 2° C. to 8° C., 5 months

{"compound": "NC(=O)c1ccc[n+]([C@@H]2O[C@H](CO)[C@@H](O)[C@H]2O)c1.O=C(O)C[C@H](O)C(=O)O.O=C([O-])C[C@H](O)C(=O)O [Example 4, malate of NR (1:2)]", "purity by HPLC, Time (month) 5": 97.707}
{"compound": "NC(=O)c1ccc[n+]([C@@H]2O[C@H](CO)[C@@H](O)[C@H]2O)c1.O=C(O)CC(O)(CC(=O)O)C(=O)O.O=C(O)CC(O)(CC(=O)O)C(=O)[O-] [Example 2, citrate of NR (1:2)]", "purity by HPLC, Time (month) 5": 97.704}
{"compound": "NC(=O)c1ccc[n+]([C@@H]2O[C@H](CO)[C@@H](O)[C@H]2O)c1.[Cl-] [Comparative Example, chlorine salt of NR, reference compound]", "purity by HPLC, Time (month) 5": 97.384}
{"compound": "NC(=O)c1ccc[n+]([C@@H]2O[C@H](CO)[C@@H](O)[C@H]2O)c1.O=C([O-])C[C@H](O)C(=O)O [Example 3, malate of NR (1:1)]", "purity by HPLC, Time (month) 5": 97.592}
{"compound": "NC(=O)c1ccc[n+]([C@@H]2O[C@H](CO)[C@@H](O)[C@H]2O)c1.O=C(O)CC(O)(CC(=O)O)C(=O)[O-] [Example 1, citrate of NR (1:1)]", "purity by HPLC, Time (month) 5": 97.823}

====

Recorded purity by HPLC, Time (month) 2 values for a group of molecules are listed next.
assay: Stability test: storage in nitrogen-filled sealed bottles, purity test by HPLC every month; format: physicochemical; details: Table 1, stored at −20° C., 2 months

{"molecule": "NC(=O)c1ccc[n+]([C@@H]2O[C@H](CO)[C@@H](O)[C@H]2O)c1.O=C(O)CC(O)(CC(=O)O)C(=O)[O-] [Example 1, citrate of NR (1:1)]", "purity by HPLC, Time (month) 2": 98.450}
{"molecule": "NC(=O)c1ccc[n+]([C@@H]2O[C@H](CO)[C@@H](O)[C@H]2O)c1.[Cl-] [Comparative Example, chlorine salt of NR, reference compound]", "purity by HPLC, Time (month) 2": 98.087}
{"molecule": "NC(=O)c1ccc[n+]([C@@H]2O[C@H](CO)[C@@H](O)[C@H]2O)c1.O=C(O)C[C@H](O)C(=O)O.O=C([O-])C[C@H](O)C(=O)O [Example 4, malate of NR (1:2)]", "purity by HPLC, Time (month) 2": 98.629}
{"molecule": "NC(=O)c1ccc[n+]([C@@H]2O[C@H](CO)[C@@H](O)[C@H]2O)c1.O=C([O-])C[C@H](O)C(=O)O [Example 3, malate of NR (1:1)]", "purity by HPLC, Time (month) 2": 98.310}
{"molecule": "NC(=O)c1ccc[n+]([C@@H]2O[C@H](CO)[C@@H](O)[C@H]2O)c1.O=C(O)CC(O)(CC(=O)O)C(=O)O.O=C(O)CC(O)(CC(=O)O)C(=O)[O-] [Example 2, citrate of NR (1:2)]", "purity by HPLC, Time (month) 2": 98.079}

====

Recorded purity by HPLC, Time (month) 2 values for a group of molecules are listed next.
assay: Stability test: storage in nitrogen-filled sealed bottles, purity test by HPLC every month; assay type: physicochemical; conditions: Table 2, stored at 2° C. to 8° C., 2 months
propertyLabel: purity by HPLC, Time (month) 2

{"molecule": "NC(=O)c1ccc[n+]([C@@H]2O[C@H](CO)[C@@H](O)[C@H]2O)c1.O=C([O-])C[C@H](O)C(=O)O [Example 3, malate of NR (1:1)]", "observedValue": 98.185}
{"molecule": "NC(=O)c1ccc[n+]([C@@H]2O[C@H](CO)[C@@H](O)[C@H]2O)c1.O=C(O)CC(O)(CC(=O)O)C(=O)[O-] [Example 1, citrate of NR (1:1)]", "observedValue": 98.409}
{"molecule": "NC(=O)c1ccc[n+]([C@@H]2O[C@H](CO)[C@@H](O)[C@H]2O)c1.O=C(O)CC(O)(CC(=O)O)C(=O)O.O=C(O)CC(O)(CC(=O)O)C(=O)[O-] [Example 2, citrate of NR (1:2)]", "observedValue": 98.240}
{"molecule": "NC(=O)c1ccc[n+]([C@@H]2O[C@H](CO)[C@@H](O)[C@H]2O)c1.[Cl-] [Comparative Example, chlorine salt of NR, reference compound]", "observedValue": 98.206}
{"molecule": "NC(=O)c1ccc[n+]([C@@H]2O[C@H](CO)[C@@H](O)[C@H]2O)c1.O=C(O)C[C@H](O)C(=O)O.O=C([O-])C[C@H](O)C(=O)O [Example 4, malate of NR (1:2)]", "observedValue": 98.360}

====

test: Stability test: storage in nitrogen-filled sealed bottles, purity test by HPLC every month; type: physicochemical; settings: Table 2, stored at 2° C. to 8° C., over 6 months

{"compound": "NC(=O)c1ccc[n+]([C@@H]2O[C@H](CO)[C@@H](O)[C@H]2O)c1.O=C(O)CC(O)(CC(=O)O)C(=O)[O-] [Example 1, citrate of NR (1:1)]", "Decomposition rate (%)": 1.27}
{"compound": "NC(=O)c1ccc[n+]([C@@H]2O[C@H](CO)[C@@H](O)[C@H]2O)c1.O=C(O)C[C@H](O)C(=O)O.O=C([O-])C[C@H](O)C(=O)O [Example 4, malate of NR (1:2)]", "Decomposition rate (%)": 1.01}
{"compound": "NC(=O)c1ccc[n+]([C@@H]2O[C@H](CO)[C@@H](O)[C@H]2O)c1.[Cl-] [Comparative Example, chlorine salt of NR, reference compound]", "Decomposition rate (%)": 1.44}
{"compound": "NC(=O)c1ccc[n+]([C@@H]2O[C@H](CO)[C@@H](O)[C@H]2O)c1.O=C(O)CC(O)(CC(=O)O)C(=O)O.O=C(O)CC(O)(CC(=O)O)C(=O)[O-] [Example 2, citrate of NR (1:2)]", "Decomposition rate (%)": 0.99}
{"compound": "NC(=O)c1ccc[n+]([C@@H]2O[C@H](CO)[C@@H](O)[C@H]2O)c1.O=C([O-])C[C@H](O)C(=O)O [Example 3, malate of NR (1:1)]", "Decomposition rate (%)": 1.25}
